Assay: Ratio of plasma concentration in po dosed dog at 8 hrs to EC50 for genotype 1b Hepatitis C virus bicistronic replicon Con1 infected in human Huh7 cells
Type: ADME, organism-based, Huh-7
Settings: in vivo
List of Ratio values.
Quantity name: Ratio

C[C@H](NS(=O)(=O)c1ccc(-c2c(C#N)c3cc(C(F)(F)F)cnc3n2C2CCC2)nc1)C(F)(F)F : 125
C[C@H](NS(=O)(=O)c1ccc(-c2c(C#N)c3cc(Cl)cnc3n2C2CCCC2)nc1)C(F)(F)F : 2
Cc1cnc2c(c1)c(C#N)c(-c1ccc(S(=O)(=O)N[C@@H](C)C(F)(F)F)cn1)n2C1CCC1 : 14
C[C@H](NS(=O)(=O)c1ccc(-c2c(C#N)c3cc(Cl)cnc3n2C2CCC2)nc1)C(F)(F)F : 12

====

Experiment: Toxicity in human HuH7 cells infected with genotype 1b Hepatitis C virus bicistronic replicon Con1 assessed as reduction in GAPDH RNA after 3 days by RT-PCR analysis
Assay type: cell-based, Huh-7
Entries annotated with measured IC50 at 3 days
Quantity name: IC50 at 3 days

C[C@H](NS(=O)(=O)c1ccc(-c2c(C#N)c3cccnc3n2C2CCC2)nc1)C(F)(F)F : > 10 µM
Cc1cc2c(cn1)c(C#N)c(-c1ccc(S(=O)(=O)N[C@@H](C)C(F)(F)F)cn1)n2C1CCC1 : > 10 µM
C[C@H](NS(=O)(=O)c1ccc(-c2c(C#N)c3cc(Cl)cnc3n2CC2CC2)nc1)C(F)(F)F : > 10 µM

====

Assay: Toxicity in human HuH7 cells infected with genotype 1b Hepatitis C virus bicistronic replicon Con1 assessed as reduction in GAPDH RNA after 3 days by RT-PCR analysis
Format: cell-based, Huh-7
Here the recorded IC50 at 3 days is given for each entry.
Quantity name: IC50 at 3 days

C[C@H](NS(=O)(=O)c1ccc(-c2c(C#N)c3cnc(OC(F)F)nc3n2C2CCC2)nc1)C(F)(F)F : > 10 µM
C[C@H](NS(=O)(=O)c1ccc(-c2c(C#N)c3cnc(Cl)cc3n2C2CCC2)nc1)C(F)(F)F : 1.31 µM
COc1ccc2c(C#N)c(-c3ccc(S(=O)(=O)N[C@@H](C)C(F)(F)F)cn3)n(C3CCC3)c2n1 : 9.7 µM
C[C@H](NS(=O)(=O)c1ccc(-c2c(C#N)c3cc(C4CC4)cnc3n2C2CCC2)nc1)C(F)(F)F : > 10 µM
C[C@H](NS(=O)(=O)c1ccc(-c2c(C#N)c3ccc(Cl)nc3n2C2CCC2)nc1)C(F)(F)F : 6.3 µM
Cc1ccc2c(C#N)c(-c3ccc(S(=O)(=O)N[C@@H](C)C(F)(F)F)cn3)n(C3CCC3)c2n1 : > 10 µM
CCCOc1cnc2c(c1)c(C#N)c(-c1ccc(S(=O)(=O)N[C@@H](C)C(F)(F)F)cn1)n2C1CCC1 : > 10 µM
COc1ncc2c(C#N)c(-c3ccc(S(=O)(=O)N[C@@H](C)C(F)(F)F)cn3)n(C3CCC3)c2n1 : > 10 µM
C[C@H](NS(=O)(=O)c1ccc(-c2c(C#N)c3cc(OC(F)F)cnc3n2C2CCC2)nc1)C(F)(F)F : > 10 µM

====

Test: Ratio of drug level in liver to plasma Sprague-Dawley rat plasma at 10 mg/kg, po administered as single dose by LC-MS/MS analysis
Assay type: ADME, organism-based
Design: dose 10 mg/kg, route oral
Kp by entry:
Quantity name: Kp

C[C@H](NS(=O)(=O)c1ccc(-c2c(C#N)c3cc(Cl)cnc3n2C2CCCC2)nc1)C(F)(F)F : 19
C[C@H](NS(=O)(=O)c1ccc(-c2c(C#N)c3cc(F)cnc3n2C2CCC2)nc1)C(F)(F)F : 6
Cc1cnc2c(c1)c(C#N)c(-c1ccc(S(=O)(=O)N[C@@H](C)C(F)(F)F)cn1)n2C1CCC1 : 9

====

Tested on: Hepatitis C virus
Assay: Antiviral activity against genotype 1b Hepatitis C virus bicistronic replicon Con1 infected in human HuH7 cells after 3 days by RT-PCR analysis
Assay type: functional, cell-based, Hepacivirus hominis
Conditions: genotype 1b Con1, Huh-7, 72 h
Entries and their measured EC50 follow.
Quantity name: EC50 (nM)

CCOc1cnc2c(c1)c(C#N)c(-c1ccc(S(=O)(=O)N[C@@H](C)C(F)(F)F)cn1)n2C1CCC1 : 200
C[C@H](NS(=O)(=O)c1ccc(-c2c(C#N)c3cc(OC(F)F)cnc3n2C2CCC2)nc1)C(F)(F)F : 50
C[C@H](NS(=O)(=O)c1ccc(-c2c(C#N)c3cc(Cl)cnc3n2C2CCCC2)nc1)C(F)(F)F : 27
COc1cnc2c(c1)c(C#N)c(-c1ccc(S(=O)(=O)N[C@@H](C)C(F)(F)F)cn1)n2CC1CC1 : 300
C[C@H](NS(=O)(=O)c1ccc(-c2c(C#N)c3cccnc3n2C2CCC2)nc1)C(F)(F)F : 217
C[C@H](NS(=O)(=O)c1ccc(-c2c(C#N)c3ncc(Cl)cc3n2C2CCC2)nc1)C(F)(F)F : 94
Cc1ccc2c(C#N)c(-c3ccc(S(=O)(=O)N[C@@H](C)C(F)(F)F)cn3)n(C3CCC3)c2n1 : 87
